test.protocol: in vitro
Design: Viability of infected HeLa host cells, resazurin conversion, bulk resorufin fluorescence relative to DMSO
study.conditions: human, hela cells; bulk resorufin, mean of 3
viability at 28.5 h, 0.333 µM overview
property.measured: viability at 28.5 h, 0.333 µM (%)

> print(dat)
                                    compound  u  recorded.result
 1  Cc1ccc2[nH]c3c(c2c1)CCOC31CCN(Cc2ccccc2-c2ccccc2)CC1 [c22e]  %             87.8
 2  CCCCc1ccc(NC(=N)Nc2nc(C)cc(C)n2)cc1 [c33e]  %             94.3
 3  O=[N+]([O-])c1ccc(-n2cnc3ccccc32)c([N+](=O)[O-])c1 [c41e]  %              104
 4  O=C(Nc1ccc(F)c(F)c1)NC1CCC2CN(CCOc3ccccc3)CC2C1 (stereo not shown)  %             91.6
 5      CCOc1ccsc1C(=O)NC1Cc2ccccc2C1 [c16e]  %             87.5
 6  CCC(c1ccc(F)cc1)N(C)C(=O)Cn1cc(C(=O)NC2CCCCC2)ccc1=O (stereo not shown) [c44e]  %             87.7
 7               O=C1Oc2nc3ccccc3cc2CN1C1CC1  %             91.7
 8  O=C(CC1SC(Nc2ccc(O)cc2)=NC1=O)c1ccccc1 (stereo not shown) [c13e]  %             86.2
 9  CC(=O)N1CCc2sccc2C1c1ccccc1NCc1ccoc1 (stereo not shown) [c28e]  %             86.1
10  FC(F)(F)CCN1CCC2(CC1)NCCc1c2[nH]c2ccc(Cl)cc12 [c34e]  %             89.1
